# target_of_assay: COX-1 (Homo sapiens, UniProt P23219)
# Construct: Fresh blood from healthy volunteers
# Sequence (P23219 24-599): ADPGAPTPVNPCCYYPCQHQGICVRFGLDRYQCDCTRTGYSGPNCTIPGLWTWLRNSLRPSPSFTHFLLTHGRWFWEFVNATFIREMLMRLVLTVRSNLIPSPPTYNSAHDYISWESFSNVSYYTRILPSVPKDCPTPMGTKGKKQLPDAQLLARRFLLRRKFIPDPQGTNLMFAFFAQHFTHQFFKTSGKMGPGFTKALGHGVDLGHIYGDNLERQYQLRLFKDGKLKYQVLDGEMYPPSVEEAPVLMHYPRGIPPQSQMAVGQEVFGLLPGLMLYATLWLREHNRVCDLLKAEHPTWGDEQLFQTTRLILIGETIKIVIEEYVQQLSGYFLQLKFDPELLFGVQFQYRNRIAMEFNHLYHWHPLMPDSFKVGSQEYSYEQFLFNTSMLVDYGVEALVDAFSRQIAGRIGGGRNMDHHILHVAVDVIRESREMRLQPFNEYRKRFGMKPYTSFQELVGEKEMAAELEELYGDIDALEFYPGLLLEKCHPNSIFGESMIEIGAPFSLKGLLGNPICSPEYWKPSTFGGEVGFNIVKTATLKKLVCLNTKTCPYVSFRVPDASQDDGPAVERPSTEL
# protocol_notes: COX-1 activity in human whole blood (TXB2, calcium ionophore A23187)
# assay_context: 1 h at 37° C., TXB2 by ELISA
observable: IC50 (µM)

- structure_smiles_string: "Cc1cc(=O)c(Oc2ccc(Br)cc2F)c(-c2ccc(S(C)(=O)=O)cc2)o1"
  IC50, µM: 40.2
- structure_smiles_string: "COCc1cc(=O)c(Oc2ccc(Cl)cc2)c(-c2ccc(S(C)(=O)=O)cc2)o1"
  IC50, µM: 91.9
- structure_smiles_string: "Cc1cc(=O)c(Oc2ccc(Br)cc2Br)c(-c2ccc(S(C)(=O)=O)cc2)o1"
  IC50, µM: 57.5

[1] COCc1cc(=O)c(Oc2ccc(F)cc2)c(-c2ccc(S(C)(=O)=O)cc2)o1
[2] Cc1cc(=O)c(Oc2ccc(Cl)cc2C)c(-c2ccc(S(C)(=O)=O)cc2)o1
[3] Cc1cc(=O)c(Oc2ccccc2C)c(-c2ccc(S(C)(=O)=O)cc2)o1
*Q* Rank by IC50 (largest to smallest). Would you mind listing the labels in the order asked for?
*A* 1, 2, 3

[1] CC(=O)OCc1cc(=O)c(Oc2ccc(F)cc2)c(-c2ccc(S(C)(=O)=O)cc2)o1
[2] Cc1oc(-c2ccc(S(C)(=O)=O)cc2)c(Oc2ccc(F)cc2F)c(=O)c1C
[3] Cc1oc(-c2ccc(S(C)(=O)=O)cc2)c(Oc2ccc(Cl)cc2)c(=O)c1Br
[4] Cc1ccc(Oc2c(-c3ccc(S(C)(=O)=O)cc3)oc(C(F)F)cc2=O)cc1
*Q* Ascending sort, IC50. Would you mind listing the labels in the order asked for?
*A* 2, 4, 1, 3

[a] Cc1oc(-c2ccc(S(C)(=O)=O)cc2)c(Oc2ccc(F)cc2F)c(=O)c1Br
[b] CCc1c(C)oc(-c2ccc(S(C)(=O)=O)cc2)c(Oc2ccc(F)cc2F)c1=O
*Q* For the two items a and b , which reports the higher IC50 value? Respond using the label that marks the chosen record.
*A* b
(b: 35.6 µM, a: 20 µM)

[P] Cc1cccc(Oc2c(-c3ccc(S(C)(=O)=O)cc3)oc(C)cc2=O)c1
[Q] Cc1oc(-c2ccc(S(C)(=O)=O)cc2)c(Oc2ccc(Cl)cc2)c(=O)c1Cl
*Q* Hi there, can you help? I need to know whether P or Q has lower measured IC50. Respond using the label that marks the chosen record.
*A* P

----------
# target_of_assay: COX-2 (Homo sapiens, UniProt P35354)
# Construct: incubated in the presence of LPS (10:g/ml) for 24 h at 37° C. in order to induce the COX-2 expression; from tissue; host or cells: human whole blood (heparinized) from healthy volunteers, LPS-stimulated for 24 h
# Sequence (P35354 18-604): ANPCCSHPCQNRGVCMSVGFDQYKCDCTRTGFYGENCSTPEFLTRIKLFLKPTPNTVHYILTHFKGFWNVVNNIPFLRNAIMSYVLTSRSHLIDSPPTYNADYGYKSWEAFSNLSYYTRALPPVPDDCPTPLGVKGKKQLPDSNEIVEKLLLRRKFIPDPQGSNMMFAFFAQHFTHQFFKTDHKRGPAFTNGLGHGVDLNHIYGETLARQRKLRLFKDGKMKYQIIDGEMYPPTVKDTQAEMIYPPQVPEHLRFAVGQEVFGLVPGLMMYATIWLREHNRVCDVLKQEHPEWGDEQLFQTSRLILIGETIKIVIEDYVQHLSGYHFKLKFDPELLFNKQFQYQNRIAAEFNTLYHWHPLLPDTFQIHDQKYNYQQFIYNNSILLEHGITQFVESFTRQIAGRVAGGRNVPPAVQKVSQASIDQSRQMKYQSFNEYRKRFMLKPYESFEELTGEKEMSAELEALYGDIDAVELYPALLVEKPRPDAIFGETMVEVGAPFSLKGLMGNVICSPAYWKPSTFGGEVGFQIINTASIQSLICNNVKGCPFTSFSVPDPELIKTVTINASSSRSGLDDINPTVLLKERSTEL
# protocol_notes: COX-2 activity in human whole blood (PGE2, LPS-induced)
# Type: cell-based
# assay_context: ratio of COX-1/COX-2 IC50 values
observable: Ratio COX-1/COX-2

- structure_smiles_string: "COCc1cc(=O)c(Oc2ccc(F)cc2F)c(-c2ccc(S(C)(=O)=O)cc2)o1"
  target_of_assay: "COX-2 (Homo sapiens, UniProt P35354)"
  Ratio COX-1/COX-2: 124
- structure_smiles_string: "Cc1oc(-c2ccc(S(C)(=O)=O)cc2)c(Oc2ccc(F)cc2F)c(=O)c1Br"
  target_of_assay: "COX-2 (Homo sapiens, UniProt P35354)"
  Ratio COX-1/COX-2: 27
- structure_smiles_string: "Cc1oc(-c2ccc(S(C)(=O)=O)cc2)c(Oc2ccc(Cl)cc2)c(=O)c1Cl"
  target_of_assay: "COX-2 (Homo sapiens, UniProt P35354)"
  Ratio COX-1/COX-2: 74

[P] Cc1cc(=O)c(Oc2ccc(Br)cc2Br)c(-c2ccc(S(C)(=O)=O)cc2)o1
[Q] CC(=O)OCc1cc(=O)c(Oc2ccc(F)cc2)c(-c2ccc(S(C)(=O)=O)cc2)o1
[R] Cc1oc(-c2ccc(S(C)(=O)=O)cc2)c(Oc2ccc(Cl)cc2)c(=O)c1Br
*Q* Ascending sort, Ratio COX-1/COX-2. Would you mind listing the labels in the order asked for?
*A* P, R, Q

Taken from patent US7354936B2.
